biological target: ALK tyrosine kinase receptor (Homo sapiens); details: at 1 µM;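 further: values are mean percent inhibition of ALK, screened as part of the GSK PKIS panel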
Reported inhibition values are given for each entry in this list.
Just the number in %, nothing appended.

See these solved cases before continuing.
{"columns": ["query_smiles", "test_target", "val"],
 "data": [
  ["NCc1ccc(-n2c(-c3nonc3N)nc3cnccc32)cc1", "ALK tyrosine kinase receptor (Homo sapiens)", 17.3],
  ["NS(=O)(=O)c1ccc(N/N=C2\\C(=O)Nc3ccc(-c4cnco4)cc32)cc1", "ALK tyrosine kinase receptor (Homo sapiens)", -0.11],
  ["COc1cc2ncn(-c3cc(OCCc4ccccc4)c(C(N)=O)s3)c2cc1OC", "ALK tyrosine kinase receptor (Homo sapiens)", 5.89],
  ["C[C@@H](Oc1cc(-n2cnc3ccc(OC4CCN(C)CC4)cc32)sc1C(N)=O)c1ccccc1Cl", "ALK tyrosine kinase receptor (Homo sapiens)", 5.48],
  ["Fc1ccc(-c2ncn(CCCN3CCOCC3)c2-c2ccncc2)cc1", "ALK tyrosine kinase receptor (Homo sapiens)", -0.45],
  ["COc1cc(N2CCN(C(C)C)CC2)ccc1Nc1nc(Nc2ccc(F)cc2C(=O)NC[C@@H](O)CO)c2cc[nH]c2n1", "ALK tyrosine kinase receptor (Homo sapiens)", 69.5],
  ["CS(=O)(=O)CCNCc1ccc(-c2ccc3ncnc(Nc4ccc(OCc5ccccc5)c(Br)c4)c3c2)o1", "ALK tyrosine kinase receptor (Homo sapiens)", 1.84],
  ["COc1ccc(C2=C(N3CCc4ccccc43)C(=O)NC2=O)cc1", "ALK tyrosine kinase receptor (Homo sapiens)", 5.62]
]}

response.value for CCc1nccc2c1nc(-c1nonc1N)n2CC (field: inhibition) = 0.3

response.value for NC(=O)c1cc(-c2ccncc2)cc(-c2ccccc2)c1N (field: inhibition) = 5.19

response.value for CCS(=O)(=O)c1ccc(OC)c(Nc2ncc(-c3cccc(-c4ccccc4F)c3)o2)c1 (field: inhibition) = 4.33

response.value for O=C(NCC1CC1)c1ccc(-c2cccc(C(=O)NC3CC3)c2)cc1 (field: inhibition) = 3.12

response.value for O=C1Nc2ccccc2/C1=C/Nc1ccc(-n2cncn2)cc1 (field: inhibition) = 11.8

response.value for O=C(Nc1n[nH]c2cc(-c3cc(F)ccc3F)ccc12)C1CC1 (field: inhibition) = 4.05

response.value for C#Cc1cccc(Nc2ncnc3ccc(OCCCCNCCS(C)(=O)=O)cc23)c1 (field: inhibition) = 31.9

---

molecular target: Casein kinase II subunit alpha (Homo sapiens); conditions: at 1 µM;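 further: reported value is the mean CK2 inhibition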
property_name: inhibition (%)
Just the number in %, nothing appended.

See these solved cases before continuing.
{"columns": ["compound", "inhibition (%)"],
 "data": [
  ["O=C(Nc1n[nH]c2cc(-c3cc(F)ccc3F)ccc12)C1CC1", 2.39],
  ["COc1cccc(-n2cnc3c(N/N=C/c4ccncc4)ncnc32)c1", 10.8],
  ["CCS(=O)(=O)c1ccc(OC)c(Nc2ncc(-c3ccccc3Cl)o2)c1", 23.3],
  ["CCN(CC)Cc1ccc(Nc2nccc(-c3cnn4ncccc34)n2)cc1", 31.1],
  ["NS(=O)(=O)c1ccc(Nc2cc(-c3ccc(O)c(F)c3)n[nH]2)cc1", 29.6]
]}

response.value for C[C@@H](Oc1cc(-n2cnc3ccc(OC4CCN(C)CC4)cc32)sc1C(N)=O)c1ccccc1Cl (field: inhibition) = 7.82

response.value for Nc1nccc(-c2c(-c3ccc(F)cc3)ncn2C2CCC(O)CC2)n1 (stereo not given) (field: inhibition) = 1.03

response.value for CN1CCN(CCCNc2nc3ccc(Oc4ccc(NC(=O)Nc5cc(C(F)(F)F)ccc5F)cc4)cc3[nH]2)CC1 (field: inhibition) = -5.31

response.value for COc1ccc(-c2ccc3c(NC(=O)C4CC4)n[nH]c3n2)cc1 (field: inhibition) = 8.9

response.value for COc1ccc2cc(-c3c(-c4ccncc4)nc(-c4ccc([S+](C)[O-])cc4C)n3C)ccc2c1 (stereo not given) (field: inhibition) = 3.85

---

Reported inhibition values are given for each entry in this list.
molecular target: MAP kinase-activated protein kinase 3 (Homo sapiens); conditions: at 0.1 µM
Description: GSK_PKIS: MAPKAPK3 mean inhibition at 0.1 uM [Nanosyn]
Just the number in %, nothing appended.

See these solved cases before continuing.
{"columns": ["query_smiles", "endpoint_unit", "inhibition"],
 "data": [
  ["Cc1ccc(NC(=O)c2ccoc2)cc1-c1ccc(C(=O)NCC2CC2)cc1", "%", 20],
  ["O=C(Nc1ccc(Oc2ccc3[nH]c(NC(=O)c4ccccc4)nc3c2)cc1)Nc1cc(C(F)(F)F)ccc1F", "%", 4.88],
  ["CS(=O)(=O)CCNCc1cc(-c2cc3c(Nc4ccc(OCc5cccc(F)c5)c(Cl)c4)ncnc3s2)cs1", "%", 3.37]
]}

response.value for COc1ccc(-c2ccc3c(NC(=O)C4CC4)n[nH]c3n2)cc1 (field: inhibition) = 1.44

response.value for COc1cccc(-n2cnc3c(N/N=C/c4ccncc4)ncnc32)c1 (field: inhibition) = -0.9

---

molecular target: Dual specificity protein kinase CLK3 (Homo sapiens); settings: at 1 µM;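 further: each value is the mean inhibition of CLK3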
Reported inhibition values are given for each entry in this list.
Just the number in %, nothing appended.

See these solved cases before continuing.
{"columns": ["query_smiles", "endpoint_unit", "inhibition"],
 "data": [
  ["COc1cc2ncn(-c3cc(OCc4ccccc4C(F)(F)F)c(C(C)=O)s3)c2cc1OC", "%", 1.08],
  ["COc1cc(Nc2ncc3c(C)nc(-c4cccc(C(F)(F)F)c4)n3n2)cc(OC)c1OC", "%", 2.91],
  ["O=C1Nc2ccc(I)cc2C1=Cc1cc(Br)c(O)c(Br)c1", "%", -0.23],
  ["N#Cc1ccc(Oc2nccc(-c3c(-c4ccc(F)cc4)ncn3C3CCNCC3)n2)cc1", "%", -0.16],
  ["Fc1ccc(-c2ncn(C3CCNCC3)c2-c2ccnc(Oc3ccc(Oc4ccccc4)cc3)n2)cc1", "%", 1.21],
  ["Cc1ccc(C(=O)NC2CCC2)cc1-c1ccc(C(=O)NCC2CC2)cc1", "%", 1.28],
  ["c1ccc(-c2n[nH]cc2-c2ccnc(-c3ccc(OCCN4CCOCC4)cc3)c2)nc1", "%", 0.55],
  ["Cc1ccc(NC(=O)c2ccoc2)cc1-c1ccc(C(=O)NCC2CC2)cc1", "%", 0.49]
]}

Turning now to a further molecule:
response.value for NC(=O)c1cc(-c2ccncc2)cc(-c2ccccc2)c1N (field: inhibition) = 2.34

---

system: Tyrosine-protein kinase ABL1 (Homo sapiens), P00519 [Y253F]; details: at 0.1 µM
Reported inhibition values are given for each entry in this list.
Just the number in %, nothing appended.

{"columns": ["query_smiles", "endpoint_unit", "val"],
 "data": [
  ["O=C(Nc1n[nH]c2nc(-c3ccc(O)cc3)c(Br)cc12)C1CC1", "%", 22.1],
  ["FC(F)(F)c1cccc(Nc2nccc(-c3cnn4nc(-c5ccccc5)ccc34)n2)c1", "%", -1.1]
]}

response.value for Cc1ccc(C(=O)NC2CCC2)cc1-c1ccc(C(=O)NCC2CC2)cc1 (field: inhibition) = 2.23

response.value for COc1ccc(C2=C(N3CCc4ccccc43)C(=O)NC2=O)cc1 (field: inhibition) = 5.42

response.value for NC(=O)c1ccc(Oc2nccc(-c3c(-c4ccc(F)cc4)ncn3C3CCNCC3)n2)cc1 (field: inhibition) = 3.97

---

target: Serine/threonine-protein kinase MRCK beta (Homo sapiens); conditions: at 0.1 µM;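 further: values are mean percent inhibition of MRCKB, screened as part of the GSK PKIS kinase inhibitor set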
property_name: inhibition (%)
Just the number in %, nothing appended.

See these solved cases before continuing.
{"columns": ["query_smiles", "inhibition [%]"],
 "data": [
  ["NS(=O)(=O)c1ccc(Nc2cc(-c3ccc(O)c(F)c3)n[nH]2)cc1", 0.18],
  ["CCc1nccc2c1nc(-c1nonc1N)n2CC", 0.74],
  ["CN(C)CCOc1ccc(-c2cc(-c3ccc4c(c3)CCC4=NO)c(-c3ccncc3)o2)cc1", -0.99],
  ["COc1cccc(-n2cnc3c(N/N=C/c4ccncc4)ncnc32)c1", 0.38]
]}

response.value for O=C(Nc1n[nH]c2cc(-c3ccccc3)ccc12)C1CC1 (field: inhibition) = 0.91

response.value for NS(=O)(=O)c1ccc(N/N=C2\C(=O)Nc3ccc(C(=O)NCCCn4ccnc4)cc32)cc1 (field: inhibition) = 0.34

response.value for COc1ccc2cc(-c3c(-c4ccncc4)nc(-c4ccc(S(C)(=O)=O)cc4C)n3C)ccc2c1 (field: inhibition) = 2.15

response.value for Cc1nnc(-c2ccc(C)c(-c3ccc(C(=O)NCc4ccc(Cl)cc4)cc3)c2)o1 (field: inhibition) = 0.69

response.value for Fc1ccc(-c2nc3n(c2-c2ccncc2)CCS3)cc1 (field: inhibition) = 1.28

response.value for Fc1ccc(-c2ncn(CCCN3CCOCC3)c2-c2ccncc2)cc1 (field: inhibition) = 0.96

response.value for CCc1cccc(CC)c1/C=C/c1cncc(C(=O)NC)c1 (field: inhibition) = 0.83

---

molecular target: Angiopoietin-1 receptor (Homo sapiens) (UniProt Q02763); conditions: at 1 µM;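 further: reported value is the mean TIE2 inhibition from the GSK PKIS dataset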
Sequence (Q02763 whole entry): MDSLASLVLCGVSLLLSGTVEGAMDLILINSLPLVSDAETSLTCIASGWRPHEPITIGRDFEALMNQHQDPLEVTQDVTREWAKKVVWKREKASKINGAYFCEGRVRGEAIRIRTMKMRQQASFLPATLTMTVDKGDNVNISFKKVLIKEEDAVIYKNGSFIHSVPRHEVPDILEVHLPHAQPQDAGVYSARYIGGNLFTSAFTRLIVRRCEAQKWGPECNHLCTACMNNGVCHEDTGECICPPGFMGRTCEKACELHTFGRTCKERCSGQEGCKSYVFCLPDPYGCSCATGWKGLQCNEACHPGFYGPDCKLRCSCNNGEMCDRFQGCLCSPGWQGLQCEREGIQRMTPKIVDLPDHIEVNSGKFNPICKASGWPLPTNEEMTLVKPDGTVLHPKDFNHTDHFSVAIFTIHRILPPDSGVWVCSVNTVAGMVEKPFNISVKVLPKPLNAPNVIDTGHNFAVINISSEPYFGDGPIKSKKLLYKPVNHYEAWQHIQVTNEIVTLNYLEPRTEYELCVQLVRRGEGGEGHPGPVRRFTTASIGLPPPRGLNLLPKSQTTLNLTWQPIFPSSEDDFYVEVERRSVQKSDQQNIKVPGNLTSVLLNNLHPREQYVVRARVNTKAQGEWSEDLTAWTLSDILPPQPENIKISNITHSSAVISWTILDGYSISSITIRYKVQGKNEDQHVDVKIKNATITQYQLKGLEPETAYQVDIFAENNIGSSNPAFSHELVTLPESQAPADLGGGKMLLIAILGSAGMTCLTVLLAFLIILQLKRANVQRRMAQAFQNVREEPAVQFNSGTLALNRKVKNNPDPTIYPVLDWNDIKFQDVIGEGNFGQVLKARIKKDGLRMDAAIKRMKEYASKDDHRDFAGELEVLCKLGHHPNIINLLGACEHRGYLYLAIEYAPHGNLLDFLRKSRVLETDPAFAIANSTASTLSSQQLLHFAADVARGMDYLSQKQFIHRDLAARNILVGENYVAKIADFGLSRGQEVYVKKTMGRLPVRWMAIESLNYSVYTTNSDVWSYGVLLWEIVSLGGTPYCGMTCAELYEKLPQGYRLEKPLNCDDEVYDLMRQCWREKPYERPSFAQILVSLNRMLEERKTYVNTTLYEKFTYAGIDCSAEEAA
Would you mind sorting the entries by inhibition according to these classes? bottom: < 4%; middle: ≥ 4% and < 6%; top: ≥ 6%

Below are worked cases with known answers.
{"columns": ["query_smiles", "assigned_class"],
 "data": [
  ["COc1ccc(C2=C(N3CCc4ccccc43)C(=O)NC2=O)cc1", "bottom"],
  ["Cc1ccc(NC(=O)c2ccoc2)cc1-c1ccc(C(=O)NCC2CC2)cc1", "bottom"],
  ["COc1ccc2ncn(-c3cc(O[C@H](C)c4ccccc4Cl)c(C(N)=O)s3)c2c1", "top"],
  ["COc1cc(Nc2ncc3c(C)nc(-c4cccc(C(F)(F)F)c4)n3n2)cc(OC)c1OC", "top"],
  ["CN(C)CCOc1ccc(-c2cc(-c3ccc4c(c3)CCC4=NO)c(-c3ccncc3)o2)cc1", "top"]
]}

Into which bin does this compound go? Fc1ccc(-c2ncn(C3CCNCC3)c2-c2ccnc(Oc3ccc4c(c3)OCO4)n2)cc1
top

Into which bin does this compound go? NC(=O)c1ccc(Oc2nccc(-c3c(-c4ccc(F)cc4)ncn3C3CCNCC3)n2)cc1
top

Into which bin does this compound go? Fc1ccc(-c2nc3n(c2-c2ccncc2)CCS3)cc1
middle

Into which bin does this compound go? COc1cc(Nc2ncc(-c3ccccc3)o2)cc(OC)c1OC
middle

Into which bin does this compound go? COC(=O)Nc1nc2ccc(Sc3ccc(NC(=O)Nc4cc(C(F)(F)F)ccc4F)cc3)cc2[nH]1
top

Into which bin does this compound go? O=C(Nc1n[nH]c2nc(-c3ccc(O)cc3)c(Br)cc12)C1CC1
top
